- testDescription: JC-1 mitochondrial signal, unstimulated MM1S myeloma – cell-based, JC-1 fluorescence, 24 h, 100 nL compound, profiling panel (AID 1170); note: test concentration not given here
- runConditions: MM1S mitochondrial potential, higher = more signal
Response key: satisfied means z-score >= -0.8; not satisfied means z-score < -0.8.

Q: Does z-score meet or surpass -0.8 for CCCCC(=C=CC[C@H](O)c1ccc(OCCO)cc1)CCO ?
Result: not satisfied

Q: Hi, just wondering whether NCCCCCNC(=O)[C@@H]1C[C@@H]2C(=O)N[C@@H](CCCCN)C(=O)N2[C@@H]1c1ccc(O)cc1 shows z-score of -0.8 or higher.
Result: not satisfied

Q: Is it the case that COc1cc(NN2C(C(O)c3ccc(N(C)C)cc3)C=CC3C(=O)N(c4ccccc4)C(=O)C32)cc(OC)c1OC (stereo unspecified) has z-score reaching or exceeding -0.8?
Result: satisfied

Q: Does the compound O=C1OCCC/C=C\[C@H]2OC34C=CCN(c5ccc6ccccc6c5)C(=O)[C@H]3N(CCO)C(=O)[C@@H]4C12 (stereo partly specified) have recorded z-score that is -0.8 or more?
Result: satisfied

Q: Reported z-score at or above -0.8? COCCOC(=O)N1C(=O)[C@@]2(c3cc(C#CCCO)ccc31)[C@H](C(=O)Nc1nc3ccccc3s1)[C@H]1C(=O)O[C@H](c3ccccc3)[C@H](c3ccccc3)N1[C@@H]2c1ccc(O)cc1
Result: satisfied

Q: Threshold query (z-score >= -0.8) on COC(=O)[C@@H]1N=C(c2ccc(OCCCO)cc2)O[C@@H]1C
Result: not satisfied

----------
- targetOrTestSystem: Luciferin 4-monooxygenase (Photinus pyralis)
- testDescription: inhibition of purified Photinus pyralis luciferase – biochemical, luminescence, purified enzyme, 2006 set, primary screen (AID 1141);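 note: cell-free assay with purified firefly luciferase at 100 ng per well in PBS; test concentration not given here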
- runConditions: purified firefly luciferase, SteadyGlo luminescence, 30 min; higher = more signal, called active from +8 up or from −8 down
endpoint: z-score
The answer should be a number; do not append a unit.

>  <compound>
CCN(CC)c1ccc(N2CC=CC34O[C@@H]5/C=C\CCCOC(=O)C5[C@H]3C(=O)N(C(C)CO)[C@@H]4C2=O)cc1 (stereo partly drawn)

>  <z-score>
-1.38

$$$$
>  <compound>
CCOC(=O)C[C@H]1[C@H](OC(=O)c2ccccc2-c2ccccc2)[C@@H](NC(=O)c2ccc3ccccc3c2)c2cc(OCCCO)ccc2N1C(=O)c1ccccc1

>  <z-score>
-0.124

$$$$
>  <compound>
CC(C)[Si]1(C(C)C)OCc2cc(-c3ccc(-c4ccc(Cl)c(Cl)c4)o3)nc(-c3ccccc3)c21

>  <z-score>
-1.07

$$$$
>  <compound>
CC(C)c1ccc(NN2C(C(O)c3ccc(C#N)cc3)C=CC3C(=O)N(c4ccccc4)C(=O)C32)cc1 (stereo not drawn)

>  <z-score>
-0.973

$$$$

Q: Give the measured z-score of CC(c1ccccc1)C(O)C1C=CC2C(=O)N(C)C(=O)C2N1Nc1ccccc1 (stereo not drawn) .
Result: 0.206

Q: Consider the compound CCCCC=C[C@@H](NC(=O)OCc1ccccc1Cl)c1ccccc1 and give its measured z-score.
Result: 0.488

Q: Fill in: z-score of CN1C(=O)C2C=CC(C(O)c3cccn3C)N(Nc3ccc([N+](=O)[O-])cc3[N+](=O)[O-])C2C1=O (stereo not drawn) is ___
Result: 0.679

Q: Reported z-score for O=C(Cc1ccccc1)[C@H]1C2C=CCCC(c3ccccc3)=C2CN1Cc1ccccc1 (stereo partly drawn) : what is it?
Result: -1.06

# credit: PubChem BioAssay
